- Assay Summary: in vitro
- Assay type: in vitro ADME, Pseudomonas aeruginosa
- Assay Context: cells or culture medium; after 48 h growth; read-out: peptide remaining in solution
Positions of bridges follow the written chain, without caps; N, C: chain ends. Residues, ends and D or L forms follow the SMILES beside them.
Reported Endpoint: remaining at 48 h

[[record]]
molecule = "CC[C@H](C)[C@@H]1NC(=O)[C@H](Cc2ccccc2)NC(=O)[C@H](CC(=O)O)NC(=O)[C@H](Cc2c[nH]cn2)NC(=O)CNC(=O)[C@H](Cc2c[nH]c3ccccc23)NC(=O)[C@H](CCCNC(=N)N)NC(=O)[C@@H](N)CCC(=O)NCCCC[C@@H](C(=O)O)NC1=O [cyclic-ERWGHDFIK] (H-ERWGHDFIK-OH; lactam 1-9)"
reported_endpoint = "remaining at 48 h"
observed_measurement = "> 60%"


----------
- Test System: PaAP variant R194A (Pseudomonas aeruginosa, UniProt Q02PA2, R194A)
- Construct: PaAP (WT, residues 27–536); His6 (TEV cleavable) (N, cleaved yes); made in house; host or cells: E. coli SHuffle T7
- Sequence (Q02PA2 37-516, looked up, stated change not applied): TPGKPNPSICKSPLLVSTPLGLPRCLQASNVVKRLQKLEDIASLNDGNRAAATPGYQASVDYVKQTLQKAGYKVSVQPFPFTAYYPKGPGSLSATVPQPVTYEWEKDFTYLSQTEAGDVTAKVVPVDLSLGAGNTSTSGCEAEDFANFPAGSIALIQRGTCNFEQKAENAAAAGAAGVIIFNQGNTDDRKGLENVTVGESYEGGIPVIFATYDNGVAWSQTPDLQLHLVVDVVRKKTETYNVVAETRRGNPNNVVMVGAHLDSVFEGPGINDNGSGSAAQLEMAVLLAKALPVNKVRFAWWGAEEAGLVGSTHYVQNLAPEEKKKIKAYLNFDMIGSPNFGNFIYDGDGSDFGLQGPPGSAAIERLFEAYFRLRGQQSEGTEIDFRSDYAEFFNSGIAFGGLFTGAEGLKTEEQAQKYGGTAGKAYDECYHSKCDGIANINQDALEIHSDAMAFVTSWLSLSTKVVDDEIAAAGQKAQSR
- Assay Summary: biochemical
pIC50: −log10 of the molar value. No end group written: not given here.
Reported Endpoint: pIC50

[[record]]
sequence = "ERWGHDFIK [linear-ERWGHDFIK]"
reported_endpoint = "pIC50"
observed_measurement = 3.51

